This listing pairs molecules with measured melting point.

Below, 5 molecules whose answers are already recorded.
# molecule, melting point
data = [
    ("COc1ccc(Oc2sc(C(N)=O)c3c2-c2c(cnn2C)CC3)cc1", "203 to 205 °C"),
    ("Cn1ncc2c1-c1c(Oc3ccc4c(c3)OCO4)sc(C(N)=O)c1CC2 [Reference Example 4]", "204 to 205 °C"),
    ("Cc1cccc(Oc2sc(C(N)=O)c3c2-c2c(cnn2CC(F)(F)F)CC3)c1C", "190 to 191 °C"),
    ("Cn1ncc2c1-c1c(Oc3ccc(F)cc3)sc(C(N)=O)c1CC2", "188 to 189 °C"),
    ("Cn1ncc2c1-c1c(Oc3ccc(OCc4ccncc4)cc3)sc(C(N)=O)c1CC2", "249 to 250 °C"),
]

q: Which value of melting point has been reported for `Cn1ncc2c1-c1c(Oc3ccc(OCc4ccccc4)cc3)sc(C(N)=O)c1CC2` in the records?
a: 200 to 201 °C

q: Which melting point is reported for this molecule? `Cn1ncc2c1-c1c(Oc3ccc(OC(F)(F)F)cc3)sc(C(N)=O)c1CC2`
a: 212 to 213 °C
